# target-or-test-system: KRas G12D (Homo sapiens (Human), UniProt P01116, G12D)
# Sequence (P01116 other isoform, or with tags, fused parts or gaps G12D): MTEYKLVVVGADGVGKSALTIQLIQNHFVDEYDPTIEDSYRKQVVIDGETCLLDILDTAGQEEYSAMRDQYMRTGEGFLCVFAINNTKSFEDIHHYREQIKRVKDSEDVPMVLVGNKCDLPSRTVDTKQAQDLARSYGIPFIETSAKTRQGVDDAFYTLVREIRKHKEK
# experimental-details: KRas G12D Binding Assay (TR-FRET displacement of Cy5 labelled tracer)
# stated-conditions: GDP-loaded KRAS G12D (amino acids 1:169), 60 minute incubation at 22° C.
Attribute: log10 of IC50
measurement-name: log10 of IC50 (log10 of the value in nM)

>>> result("Fc1cccc(-c2ncc3c(N4C[C@H]5CC[C@@H](C4)N5)nc(OCC45CCCN4CCC5)nc3c2F)c1C1CC1")
1.47
>>> result("O=Cc1cc(CCOc2nc(N3C[C@H]4CC[C@@H](C3)N4)c3cnc(-c4cccc5cccc(Cl)c45)c(F)c3n2)ccc1O")
3.92
>>> result("O[C@@H]1C[C@@H]2CN(c3nc(OCCC(F)(F)F)nc4c(F)c(-c5cccc6cccc(Cl)c56)ncc34)C[C@H]1N2")
3.53
>>> result("Oc1cc(-c2ncc3c(N4C[C@H]5CC[C@@H](C4)N5)nc(OCC4(C(F)(F)F)CCCC4)nc3c2F)c2ccccc2c1")
2.86
>>> result("CC(=O)N1CCC(Oc2nc(N3C[C@H]4CC[C@@H](C3)N4)c3cnc(-c4cc(O)cc5ccccc45)c(F)c3n2)CC1")
2.55
>>> result("Cn1ccnc1CCOc1nc(N2C[C@H]3CC[C@@H](C2)N3)c2cnc(-c3cc(O)cc4ccccc34)c(F)c2n1")
0.98
>>> result("CN1CCC[C@H]1COc1nc(N2C[C@H]3CC[C@@H](C2)N3)c2cnc(-c3cc(O)c(Br)c4ccccc34)c(F)c2n1")
1.87
